# system under test: Cannabinoid receptor 2 (Homo sapiens, UniProt P34972)
# Sequence (P34972 whole entry): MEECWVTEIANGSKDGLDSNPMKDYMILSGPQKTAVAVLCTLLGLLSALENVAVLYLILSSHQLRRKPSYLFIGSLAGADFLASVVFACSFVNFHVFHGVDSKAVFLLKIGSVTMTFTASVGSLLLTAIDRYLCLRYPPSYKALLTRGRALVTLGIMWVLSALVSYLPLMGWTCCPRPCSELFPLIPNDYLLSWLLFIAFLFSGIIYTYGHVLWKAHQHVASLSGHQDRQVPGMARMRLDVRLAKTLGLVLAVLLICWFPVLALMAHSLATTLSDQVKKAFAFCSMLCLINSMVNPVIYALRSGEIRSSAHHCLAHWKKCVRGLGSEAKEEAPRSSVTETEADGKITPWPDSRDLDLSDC
# test name: Inverse agonist activity at human recombinant cannabinoid CB2 receptor expressed in HEK cells transfected with CNG assessed as increase in cAMP level measured up to 1 hr by ACTOne membrane potential dye based assay relative to control
# Type: functional, cell-based
# experimental setup: filed as inverse agonist, time hrs <=1
quantity measured: Emax

Emax value, target or system Cannabinoid receptor 2 (Homo sapiens, UniProt P34972), for O=C(c1cc(O)c(-c2cccc(C(F)(F)F)c2)c(O)c1)c1cccs1 : 57.2%

Emax value, target or system Cannabinoid receptor 2 (Homo sapiens, UniProt P34972), for O=C(c1ccccc1)c1cc(O)c(-c2ccc3c(c2)OCCO3)c(O)c1 : 49%

Emax value, target or system Cannabinoid receptor 2 (Homo sapiens, UniProt P34972), for O=C(c1ccccc1)c1cc(O)c(-c2cc(Cl)cc(Cl)c2)c(O)c1 : 54.8%

Emax value, target or system Cannabinoid receptor 2 (Homo sapiens, UniProt P34972), for O=C(c1cc(O)c(-c2cc(Cl)ccc2Cl)c(O)c1)c1cccs1 : 61%

Values compiled from ChEMBL document CHEMBL4715916.
